- Test system: PC26
- Test method notes: qHTS profiling for inhibitors of Plasmodium falciparum proliferation (AID 504749);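 further: 0% = DMSO vehicle and full inhibition = artemisinin control; nearly all actives have a fitted effect of over 60% in size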
- Measurement conditions: P. falciparum in erythrocytes, SYBR Green DNA, 72 h; series mostly up to 28.7 µM
Inconclusive results are not listed. Calls of active or inactive are those of the source. The call rests on the fitted dose curve; in most records, active means well fitted inhibition curve with a large enough effect; inconclusive means small, poorly fitted or top-dose-only effect; inactive means flat fitted curve, though single readings scatter.
Readout label: outcome

Study these solved cases before continuing.
Compound: O=C1Nc2ccc(Cl)cc2C(c2ccccc2Cl)=NC1O (stereo not given)
outcome: inactive

Compound: C[C@]12CCC(=O)C=C1CC[C@@H]1[C@@H]2CC[C@]2(C)C(=O)CC[C@@H]12
outcome: inactive

Compound: O=C1c2ccccc2C(=O)C1C(=O)C(c1ccccc1)c1ccccc1
outcome: inactive

Compound: O=C(O)CCCc1ccc(N(CCCl)CCCl)cc1
outcome: inactive

Compound: CCCCCCCCCC(=O)O[C@H]1CC[C@H]2[C@@H]3CCC4=CC(=O)CC[C@@H]4[C@H]3CC[C@]12C
outcome: inactive

Compound: O=C1OC(c2ccc(O)c(S(=O)(=O)O)c2)(c2ccc(O)c(S(=O)(=O)O)c2)c2c(Br)c(Br)c(Br)c(Br)c21
outcome: inactive

Compound: Nc1ccccc1C(=O)O
outcome: inactive

Compound: CCC(C)(C)c1ccc(O)cc1
outcome: inactive

Compound: CN1C(=O)CCS(=O)(=O)C1c1ccc(Cl)cc1 (stereo not given)
outcome: inactive

Record `CC(C)NC(C)C` / PC26, outcome recorded as inactive

###

- Test method notes: qHTS of pediatric cancer cell lines to identify multiple opportunities for drug repurposing: Primary screen for Saos-2 cells (AID 1347097); further: nearly all actives have a fitted effect of over 40% in size
- Measurement conditions: Saos-2 viability, CellTiter-Glo ATP luminescence, 48 h; series mostly up to 46 µM
Records with an inconclusive call do not appear. The source made the active and inactive calls. Calls follow the shape of the dose curve; as a rule, active = well fitted cell-killing curve with a large enough effect; inconclusive = small, poorly fitted or top-dose-only effect; inactive = no such curve, though single readings can be large or run the other way.
Please state which outcome applies, choosing from YES for active, NO for inactive

Molecule: COC(=O)[C@@H](N)CCCN/C(N)=N/[N+](=O)[O-]
Class label: NO
--
Molecule: CC(C)c1c(CN(C)C(C)Cc2ccccc2)n(C)n(-c2ccccc2)c1=O (stereo unspecified)
Class label: NO
--
Molecule: C=CCN1C[C@H](C)N([C@H](c2ccc(C(=O)N(CC)CC)cc2)c2cccc(OC)c2)C[C@H]1C
Class label: NO
--
Molecule: CN1C(=O)CCS(=O)(=O)C1c1ccc(Cl)cc1 (stereo unspecified)
Class label: NO
--
Molecule: C[C@]12Cc3cn[nH]c3C[C@@H]1CC[C@@H]1[C@@H]2CC[C@@]2(C)[C@H]1CC[C@]2(C)O
Class label: YES
--
Molecule: CC[N+]1(CC)CCC(OC(=O)C(O)(c2ccccc2)c2ccccc2)C1 (stereo unspecified)
Class label: NO
--
Molecule: C=CCC1([C@H](C)CCC)C(=O)NC(=O)NC1=O
Class label: NO
--
Molecule: CC(C)C[C@H](CN)CC(=O)O
Class label: NO

GET /call?item= `COc1cc(OC)c(OC)cc1C=O` returns the recorded outcome of this test. NO

GET /call?item= `CCN[C@@H](C)Cc1cccc(C(F)(F)F)c1` returns the recorded outcome of this test. NO

GET /call?item= `CCOP(=S)(OCC)Oc1ccc2c(C)c(Cl)c(=O)oc2c1` returns the recorded outcome of this test. NO

###

- Test method notes: qHTS profiling for inhibitors of Plasmodium falciparum proliferation (AID 504749);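 further: 0% = DMSO vehicle and full inhibition = artemisinin control; nearly all actives have a fitted effect of over 60% in size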
- Measurement conditions: P. falciparum in erythrocytes, SYBR Green DNA, 72 h; at 28.7 µM (top of the series); parasite line B
Records with an inconclusive call do not appear.
Reported activity, negative = inhibition values follow for various compounds
// return numeric value only (unit: %, not printed)

Compound: CC(C)c1cccc(C(C)C)c1O
Experimental value: 4.13

Compound: COP(=S)(OC)Oc1ccc(SC)c(C)c1
Experimental value: 12.2

Compound: CC(C)=CC1C(C(=O)OCN2C(=O)C3=C(CCCC3)C2=O)C1(C)C (configuration not stated)
Experimental value: 1.1

Compound: COC(=O)C(c1ccccc1)C1CCCCN1 (configuration not stated)
Experimental value: 13.8

Sure, the documented activity, negative = inhibition for `CC(C)NC(C)C` is 12.2

Sure, the documented activity, negative = inhibition for `CCCCCCC(=O)CCCCCC/C=C/C[C@@H](O)[C@H](O)[C@@](N)(CO)C(=O)O` is 7.92

Sure, the documented activity, negative = inhibition for `CCCC(C)(COC(N)=O)COC(N)=O` is 9.68

Sure, the documented activity, negative = inhibition for COc1ccc2c(c1)C13CCCC[C@@H]1C(C2)N(C)CC3 (some centres not stated) is -5.63

Sure, the documented activity, negative = inhibition for `O=C1CN=C(c2ccccc2)c2cc([N+](=O)[O-])ccc2N1` is 15.1

Sure, the documented activity, negative = inhibition for `CCOP(=S)(OCC)Oc1ccc2c(C)c(Cl)c(=O)oc2c1` is -25.9

Sure, the documented activity, negative = inhibition for `O=C1OC(c2ccc(O)c(S(=O)(=O)O)c2)(c2ccc(O)c(S(=O)(=O)O)c2)c2c(Br)c(Br)c(Br)c(Br)c21` is 7.49

Sure, the documented activity, negative = inhibition for `O=C(Nc1ccc(Br)cc1)c1cc(Br)cc(Br)c1O` is 4.1

Sure, the documented activity, negative = inhibition for `NCCc1ccc(O)cc1` is 7.85
